The reported numbers originate from patent US20240343803A1.

# assayed_system: T1, human PVRIG-his (AcroBiosystems, Cat NO. PVG-H52H4) (human, UniProt Q6DKI7 41-171, limits assumed)
# T1 construct: also called human PVRIG protein
# T1 sequence (looked up): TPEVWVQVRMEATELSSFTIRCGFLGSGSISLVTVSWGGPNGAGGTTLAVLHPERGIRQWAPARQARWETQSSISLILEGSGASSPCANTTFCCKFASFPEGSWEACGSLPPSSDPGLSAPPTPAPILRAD
# assay_text: SPR (BIAcore), antibody captured on Protein A chip, human PVRIG-His analyte
property_name: kon (M⁻¹ s⁻¹)
Unit M⁻¹ s⁻¹ implied. Number only.

Known results for binders:
>  <binder>
PVRIG-A50-H1a (Fc fusion, humanized variant of PVRIG-A50; also called A50.VH1a; not shown: constant part not restated for the humanized forms; parents are VHH-hinge-CH2-CH3 of human IgG1; detected by anti-human) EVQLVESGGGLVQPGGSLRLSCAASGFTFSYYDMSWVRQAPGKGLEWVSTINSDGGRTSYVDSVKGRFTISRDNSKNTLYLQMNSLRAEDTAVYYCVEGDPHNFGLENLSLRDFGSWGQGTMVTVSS

>  <kon (M⁻¹ s⁻¹)>
425000

$$$$
>  <binder>
PVRIG-A105-H2 (Fc fusion, humanized variant of PVRIG-A105; also called A105 VH2; not shown: constant part not restated for the humanized forms; parents are VHH-hinge-CH2-CH3 of human IgG1; detected by anti-human) EVQLVESGGGLVQPGGSLRLSCAASGRTFDRHTMTWFRQAPGKEREFVATASRIPGDTYYVDSVKGRFTISRDNAKNSLYLQMNSLRAEDTAVYYCAATSAYCSEVDCYEKGSWYDNWGQGTMVTVSS

>  <kon (M⁻¹ s⁻¹)>
1.33e+06

$$$$

Query: kon; subject: PVRIG-A118-H4 (Fc fusion, humanized variant of PVRIG-A118; also called A118.VH4; not shown: constant part not restated for the humanized forms; parents are VHH-hinge-CH2-CH3 of human IgG1; detected by anti-human) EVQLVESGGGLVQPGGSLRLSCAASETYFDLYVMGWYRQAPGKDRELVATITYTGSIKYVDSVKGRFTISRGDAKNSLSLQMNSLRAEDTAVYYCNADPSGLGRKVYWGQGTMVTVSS 2.69e+06

Query: kon; subject: PVRIG-A105-H5 (Fc fusion, humanized variant of PVRIG-A105; also called A105.VH5; not shown: constant part not restated for the humanized forms; parents are VHH-hinge-CH2-CH3 of human IgG1; detected by anti-human) EVQLVESGGGLVQPGGSLRLSCAASGRTFDRHTMTWFRQAPGKEREFVATASRIPGDTYYVDSVKGRFTISRDNAKNSLYLQMNSLRAEDTAVYYCAATSAYCSEVDCYEKGSWYDNWGQGIQVTVSS 1.11e+06
